This collection of values is drawn from the supplement of paper PMC11451515.

The compounds listed here are annotated with their cell viability.
tested on: SEM cells; experiment: cell viability relative to DMSO control; higher = less cytotoxic; conditions: HPLM + 10% dialyzed FBS; 48 h; 0.19 µM
The figure you give is taken to be in %; do not add the unit.

Below are worked cases with known answers.
>  <compound>
COc1ncnc(N[S+](=O)([O-])c2ccc(N)cc2)c1OC

>  <test.system>
SEM cells

>  <output.unit>
%

>  <cell viability>
75.1

$$$$
>  <compound>
O=C(O)CCn1c2c(c3ccccc31)C[C@H](N[S+](=O)([O-])c1ccc(F)cc1)CC2

>  <test.system>
SEM cells

>  <output.unit>
%

>  <cell viability>
106

$$$$
>  <compound>
COC/1=C/C=C2\C(=C/C1=O)[C@H](CCC3=CC(=C(OC)C(=C23)OC)OC)NC(C)=O

>  <test.system>
SEM cells

>  <output.unit>
%

>  <cell viability>
14.5

$$$$
>  <compound>
COc1cccc([C@@H](C)NCCCc2ccccc2Cl)c1

>  <test.system>
SEM cells

>  <output.unit>
%

>  <cell viability>
95.8

$$$$
>  <compound>
C[C@]12CC[C@H]3[C@@H](C\C=C/4C[C@@H](O)CC[C@]34C)[C@@H]1CCC2=O

>  <test.system>
SEM cells

>  <output.unit>
%

>  <cell viability>
94.6

$$$$

Identify the measured cell viability of Cc1csc(NC(=O)c2sc3nc4c(c(C(F)(F)F)c3c2N)CCC4)n1 for SEM cells.
86.6

Identify the measured cell viability of COc1ccc([C@@H]2CC(=O)c3c(O)cc(O[C@@H]4O[C@H](CO[C@@H]5O[C@@H](C)[C@H](O)[C@@H](O)[C@H]5O)[C@@H](O)[C@H](O)[C@H]4O)cc3O2)cc1O for SEM cells.
48

Identify the measured cell viability of COc1cc2c(Nc3ccc(Br)cc3F)ncnc2cc1OCC1CCN(C)CC1 for SEM cells.
76.8

Identify the measured cell viability of COc1ccc(C2Sc3ccccc3N(CCN(C)C)C(=O)C2OC(C)=O)cc1 (stereo not given) for SEM cells.
117

Identify the measured cell viability of CC(O)(C#Cc1ccc2c(c1)N(c1nc(N)ncc1Cl)CC2)c1nccs1 (stereo not given) for SEM cells.
107

Identify the measured cell viability of Cn1cc(/C=C2\C(=O)Nc3cccnc32)c2ccccc21 for SEM cells.
121

Identify the measured cell viability of CCCCCCCCCC(=O)N[C@@H](Cc1c[nH]c2ccccc12)C(=O)N[C@H](CC(N)=O)C(=O)N[C@@H](CC(=O)O)C(=O)N[C@@H]1C(=O)NCC(=O)N[C@@H](CCCN)C(=O)N[C@@H](CC(=O)O)C(=O)N[C@H](C)C(=O)N[C@@H](CC(=O)O)C(=O)NCC(=O)N[C@H](CO)C(=O)N[C@@H]([C@@H](C)CC(=O)O)C(=O)N[C@@H](CC(=O)c2ccccc2N)C(=O)O[C@@H]1C for SEM cells.
108

Identify the measured cell viability of NC(=O)c1cccc2nc(-c3ccc([C@H]4CCCN4)cc3F)[nH]c12 for SEM cells.
110

Identify the measured cell viability of COC1=C2C[C@@H](C)C[C@H](OC)[C@H](O)[C@@H](C)/C=C(\C)[C@H](OC(N)=O)[C@@H](OC)/C=C/C=C(\C)C(=O)NC(=CC1=O)C2=O for SEM cells.
123

Identify the measured cell viability of Cn1c(=O)n(-c2ccc(C(C)(C)C#N)cc2)c2c3cc(-c4cnc5ccccc5c4)ccc3ncc21 for SEM cells.
66.3

====

The molecules listed here are annotated with their cell viability.
system: SEM cells; experiment: cell viability relative to DMSO control; higher = less cytotoxic; settings: HPLM + 10% dialyzed FBS; 48 h; 0.0211 µM
The figure you give is taken to be in %; do not add the unit.

>  <molecule>
CN(C)CCN(C)C(=O)c1ccc(NC(=O)Nc2ccc(-c3nc(N4CCOCC4)c4ccn(CC(F)(F)F)c4n3)cc2)cc1

>  <readout.number>
111

$$$$
>  <molecule>
CN1CCCC(CC1)N2\N=C(CC3=CC=C(Cl)C=C3)/C4=C(C=CC=C4)C2=O (stereo not given)

>  <readout.number>
114

$$$$
>  <molecule>
O=C\1N(N\C=C1[N]2C=CN=N2)C3=NC=NC(=C3)N4CCOCC4

>  <readout.number>
69.5

$$$$
>  <molecule>
N[S+](=O)([O-])c1cccc2c1C(=O)c1cccc(O)c1C2=O

>  <readout.number>
84.2

$$$$
>  <molecule>
COc1ccc(C2Sc3ccccc3N(CCN(C)C)C(=O)C2OC(C)=O)cc1 (stereo not given)

>  <readout.number>
115

$$$$

I'd like to know its cell viability. The molecule in question is CN1CCN2c3ncccc3Cc3ccccc3C2C1 (stereo not given)
97.4

I'd like to know its cell viability. The molecule in question is COc1cc2c(Nc3ccc(Br)cc3F)ncnc2cc1OCC1CCN(C)CC1
69.3

I'd like to know its cell viability. The molecule in question is O=C(Oc1ccc([N+](=O)[O-])cc1)N1CCC(C(O)(c2ccc3c(c2)OCO3)c2ccc3c(c2)OCO3)CC1
97

I'd like to know its cell viability. The molecule in question is CCCCCCCCCC(=O)N[C@@H](Cc1c[nH]c2ccccc12)C(=O)N[C@H](CC(N)=O)C(=O)N[C@@H](CC(=O)O)C(=O)N[C@@H]1C(=O)NCC(=O)N[C@@H](CCCN)C(=O)N[C@@H](CC(=O)O)C(=O)N[C@H](C)C(=O)N[C@@H](CC(=O)O)C(=O)NCC(=O)N[C@H](CO)C(=O)N[C@@H]([C@@H](C)CC(=O)O)C(=O)N[C@@H](CC(=O)c2ccccc2N)C(=O)O[C@@H]1C
108

I'd like to know its cell viability. The molecule in question is COC[C@H](c1ccc(C(F)(F)F)cc1)N1CCN(C2(C)CCN(C(=O)c3c(C)ncnc3C)CC2)C[C@H]1C.O=C(O)/C=C\C(=O)O
93.5

I'd like to know its cell viability. The molecule in question is C=CC(=O)Nc1cccc(Nc2nc(NC3CCC(N(C)C)CC3)nc3c2ncn3C(C)C)c1 (stereo not given)
112

I'd like to know its cell viability. The molecule in question is Cc1csc(NC(=O)c2sc3nc4c(c(C(F)(F)F)c3c2N)CCC4)n1
81.8

I'd like to know its cell viability. The molecule in question is CC(C)c1cnn2c(NCc3ccccc3)cc(NCCCCCCN)nc12
117

I'd like to know its cell viability. The molecule in question is C[S+](=O)([O-])c1ccc(C(=O)Nc2ccc(Cl)c(-c3ccccn3)c2)c(Cl)c1
116

I'd like to know its cell viability. The molecule in question is CC[C@]12\C=C/CN3CC[C@]4([C@@H](N(C)C5=CC(=C(C=C45)[C@]6(C[C@H]7C[C@H](CN(C7)CC8=C6[NH]C9=C8C=CC=C9)C(C)(F)F)C(=O)OC)OC)[C@](O)([C@@H]1OC(C)=O)C(=O)OC)[C@H]23
74.6

====

The compounds listed here are annotated with their cell viability.
test system: NOMO1; experiment: cell viability relative to DMSO control; higher = less cytotoxic; settings: RPMI 5 mM glucose + 10% dialyzed FBS; 48 h; 0.00234 µM
The figure you give is taken to be in %; do not add the unit.

I'd like to know its cell viability. The compound in question is C[S+](=O)([O-])c1ccc(-c2cnc(N)c(C(=O)Nc3ccccc3)n2)cc1
93.1

I'd like to know its cell viability. The compound in question is COc1ccc2c(c1)c(CC(=O)OCC(=O)O)c(C)n2C(=O)c1ccc(Cl)cc1
137

I'd like to know its cell viability. The compound in question is C[C@H]1[C@@H](C(=O)C[C@H]2O[C@@H]3O[C@]4(C)CC[C@H]5[C@H](C)CC[C@@H]([C@H]2C)[C@@]35OO4)O[C@@H]2O[C@]3(C)CC[C@H]4[C@H](C)CC[C@@H]1[C@@]24OO3
131

I'd like to know its cell viability. The compound in question is C[C@]12CC[C@@H]3c4ccc(O)cc4CC[C@H]3[C@@H]1C[C@@H](O)[C@@H]2O
121

I'd like to know its cell viability. The compound in question is COc1ccc2[nH]c([S+]([O-])Cc3ncc(C)c(OC)c3C)nc2c1 (stereo not given)
91.7

====

system: SEM cells; assay: cell viability relative to DMSO control; higher = less cytotoxic; details: RPMI 5 mM glucose + 10% dialyzed FBS; 48 h; 46.1 µM
endpoint: cell viability (%)
The figure you give is taken to be in %; do not add the unit.

>  <mol>
CCN(C(=O)C/1=C(O)/C2=C(C=CC=C2Cl)N(C)C1=O)C3=CC=CC=C3

>  <output.unit>
%

>  <cell viability>
3.31

$$$$
>  <mol>
Cc1csc(NC(=O)c2sc3nc4c(c(C(F)(F)F)c3c2N)CCC4)n1

>  <output.unit>
%

>  <cell viability>
69.9

$$$$
>  <mol>
CN(C)CCN(C)C(=O)c1ccc(NC(=O)Nc2ccc(-c3nc(N4CCOCC4)c4ccn(CC(F)(F)F)c4n3)cc2)cc1

>  <output.unit>
%

>  <cell viability>
53.3

$$$$
>  <mol>
CCOC(=O)c1cncn1[C@H](C)c1ccccc1

>  <output.unit>
%

>  <cell viability>
97.7

$$$$
>  <mol>
Cn1cc(/C=C2\C(=O)Nc3cccnc32)c2ccccc21

>  <output.unit>
%

>  <cell viability>
28

$$$$

Please turn your attention to the following entry.
Identify the measured cell viability of Nc1nc(N)c2nc(-c3cccc(O)c3)c(-c3cccc(O)c3)nc2n1 for SEM cells.
18.2
